System: 317291-083-R-J1-PDC complex spheroids, viability
Assay: Anticancer human tumor 317291-083-R-J1-PDC patient-derived soft tissue sarcoma cell line growth inhibition [GQUAD]
Details: second compound 0.1 µM; first compound 0.0316 µM; stronger effect = lower value
Description: DNA G-quadruplex Stabilizer Agents in Combinations in Complex Spheroids A high-throughput screen of multi-cell type tumor spheroids was designed to identify active combinations of DNA G-quadruplex stabilizer agents and targeted small molecules. […] Compounds. […] If the clinical Cmax for an agent had not been determined, the highest concentration tested was 10 microM. […]
Could you please report measured viability, T/C for the items listed next?

// known answers, use as guide
O=C(c1cc(Cc2n[nH]c(=O)c3ccccc23)ccc1F)N1CCN(C(=O)C2CC2)CC1 + CN(C)c1ccc(Nc2c3ccc(NC(=O)CCN4CCCC4)cc3nc3cc(NC(=O)CCN4CCCC4)ccc23)cc1 : 111%
CC[C@@]1(O)C(=O)OCc2c1cc1n(c2=O)Cc2cc3c(CN(C)C)c(O)ccc3nc2-1 + Cc1cnc(CNC(=O)c2c(=O)c3ccc(N4CCCN(C)CC4)nc3n3c2sc2ccccc23)cn1 : 29%
O=C(NO)c1cnc(N2CCN(S(=O)(=O)c3ccc4ccccc4c3)CC2)nc1 + CN(C)c1ccc(Nc2c3ccc(NC(=O)CCN4CCCC4)cc3nc3cc(NC(=O)CCN4CCCC4)ccc23)cc1 : 97.1%
C=CCn1c(=O)c2cnc(Nc3ccc(N4CCN(C)CC4)cc3)nc2n1-c1cccc(C(C)(C)O)n1 + Cc1[nH]c2ccc(F)cc2c1-c1nc2c3cccnc3c3ncccc3c2[nH]1 : 87%
O=c1[nH]cc(F)c(=O)[nH]1 + CN(C)c1ccc(Nc2c3ccc(NC(=O)CCN4CCCC4)cc3nc3cc(NC(=O)CCN4CCCC4)ccc23)cc1 : 110%
CC(C)n1c(=O)n(C)c2cnc3cc(F)c(-c4ccc(OCCCN5CCCCC5)nc4)cc3c21 + Cc1cnc(CNC(=O)c2c(=O)c3ccc(N4CCCN(C)CC4)nc3n3c2sc2ccccc23)cn1 : 37.1%
COc1ncnc(C2CC2)c1-c1ncc2cnn(Cc3ccc(-c4nc(C(F)(F)F)cn4C(C)C)cc3)c2n1 + CN(C)c1ccc(Nc2c3ccc(NC(=O)CCN4CCCC4)cc3nc3cc(NC(=O)CCN4CCCC4)ccc23)cc1 : 79.9%
CC(=O)O[C@H]1C(=O)[C@@]2(C)[C@H]([C@H](OC(=O)c3ccccc3)[C@]3(O)C[C@H](OC(=O)[C@H](O)[C@@H](NC(=O)c4ccccc4)c4ccccc4)C(C)=C1C3(C)C)[C@]1(OC(C)=O)CO[C@@H]1C[C@@H]2O + Cc1[nH]c2ccc(F)cc2c1-c1nc2c3cccnc3c3ncccc3c2[nH]1 : 46.6%
COc1ncnc(C2CC2)c1-c1ncc2cnn(Cc3ccc(-c4nc(C(F)(F)F)cn4C(C)C)cc3)c2n1 + Cc1cnc(CNC(=O)c2c(=O)c3ccc(N4CCCN(C)CC4)nc3n3c2sc2ccccc23)cn1 : 59.5%
COc1ccc([C@@H](O)c2cc(-c3ncnc4cc(N5CCOCC5)ccc34)c(F)cc2Cl)nn1 + CN(C)c1ccc(Nc2c3ccc(NC(=O)CCN4CCCC4)cc3nc3cc(NC(=O)CCN4CCCC4)ccc23)cc1 : 104%

# per-item lookup of viability, T/C; items listed below
1. Cn1ncnc1[C@H]1c2n[nH]c(=O)c3cc(F)cc(c23)N[C@@H]1c1ccc(F)cc1 + Cc1[nH]c2ccc(F)cc2c1-c1nc2c3cccnc3c3ncccc3c2[nH]1
2. Nc1ccn(C2OC(CO)C(O)C2(F)F)c(=O)n1 (stereo unspecified) + CN(C)c1ccc(Nc2c3ccc(NC(=O)CCN4CCCC4)cc3nc3cc(NC(=O)CCN4CCCC4)ccc23)cc1
3. Cc1cccc(N(C)C(=O)C2C(O)CCN2c2nc(C)cc(C(F)(F)F)c2C#N)c1 (stereo unspecified) + CN(C)c1ccc(Nc2c3ccc(NC(=O)CCN4CCCC4)cc3nc3cc(NC(=O)CCN4CCCC4)ccc23)cc1
4. CC1COCCN1c1cc(C2(O)CC3CCC(C2)O3)c2cnn(-c3ccn[nH]3)c2n1 (stereo unspecified) + Cc1cnc(CNC(=O)c2c(=O)c3ccc(N4CCCN(C)CC4)nc3n3c2sc2ccccc23)cn1
5. CC(C)(O)C1CCC(Nc2ccc3ncc(-c4cccc(C(F)(F)F)c4)n3n2)CC1 (stereo unspecified) + Cc1[nH]c2ccc(F)cc2c1-c1nc2c3cccnc3c3ncccc3c2[nH]1

112%
54.9%
107%
25.9%
91%

###

system: 317291-083-R-J1-PDC complex spheroids, viability; assay: Anticancer human tumor 317291-083-R-J1-PDC cell line growth inhibition [GQUAD]; conditions: second compound 0.316 µM; first compound 0.316 µM; active = viability on the fitted dose curve at most 10% of control; inactive = the rest;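 note: spheroids exposed to compounds for one week before readout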
Allowed answers: active, inactive

Dear all, I need the recorded test outcome for CCCS(=O)(=O)Nc1ccc(F)c(C(=O)c2c[nH]c3ncc(-c4ccc(Cl)cc4)cc23)c1F + Cc1cnc(CNC(=O)c2c(=O)c3ccc(N4CCCN(C)CC4)nc3n3c2sc2ccccc23)cn1 , thank you.
inactive

Please let me know the test result on file for O=c1[nH]cc(F)c(=O)[nH]1 + Cc1cnc(CNC(=O)c2c(=O)c3ccc(N4CCCN(C)CC4)nc3n3c2sc2ccccc23)cn1 .
inactive

Just curious, what result did C=CCn1c(=O)c2cnc(Nc3ccc(N4CCN(C)CC4)cc3)nc2n1-c1cccc(C(C)(C)O)n1 + Cc1cnc(CNC(=O)c2c(=O)c3ccc(N4CCCN(C)CC4)nc3n3c2sc2ccccc23)cn1 get here?
inactive

Just curious, what result did CC(=O)O[C@H]1C(=O)[C@@]2(C)[C@H]([C@H](OC(=O)c3ccccc3)[C@]3(O)C[C@H](OC(=O)[C@H](O)[C@@H](NC(=O)c4ccccc4)c4ccccc4)C(C)=C1C3(C)C)[C@]1(OC(C)=O)CO[C@@H]1C[C@@H]2O + Cc1cnc(CNC(=O)c2c(=O)c3ccc(N4CCCN(C)CC4)nc3n3c2sc2ccccc23)cn1 get here?
active

Called result for CC1COCCN1c1cc(-c2ccnn2C)c2ccnc(-c3ccn[nH]3)c2n1 (stereo not given) + Cc1cnc(CNC(=O)c2c(=O)c3ccc(N4CCCN(C)CC4)nc3n3c2sc2ccccc23)cn1
inactive

// param item: CCc1c2c(nc3ccc(O)cc13)-c1cc3c(c(=O)n1C2)COC(=O)[C@]3(O)CC + Cc1cnc(CNC(=O)c2c(=O)c3ccc(N4CCCN(C)CC4)nc3n3c2sc2ccccc23)cn1 ; yields the recorded call
active

# lookup: test call for CC(C)(O)C1CCC(Nc2ccc3ncc(-c4cccc(C(F)(F)F)c4)n3n2)CC1 (stereo not given) + Cc1cnc(CNC(=O)c2c(=O)c3ccc(N4CCCN(C)CC4)nc3n3c2sc2ccccc23)cn1
inactive

Lab log entry: C=CC(=O)N1CCN(c2nc(=O)n(-c3c(C)ccnc3C(C)C)c3nc(-c4c(O)cccc4F)c(F)cc23)C(C)C1 (stereo not given) + Cc1cnc(CNC(=O)c2c(=O)c3ccc(N4CCCN(C)CC4)nc3n3c2sc2ccccc23)cn1 — outcome as called in the assay?
inactive

###

Field: pIC50. Provide a value for each of the compounds that follow.
Tested on: 317291-083-R-J1-PDC complex spheroids, viability
Test: Anticancer human tumor 317291-083-R-J1-PDC cell line growth inhibition [GQUAD];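 note: spheroids exposed to compounds for one week before readout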
Conditions: curve of first compound; second compound 0.0316 µM
From the text: DNA G-quadruplex Stabilizer Agents in Combinations in Complex Spheroids A high-throughput screen of multi-cell type tumor spheroids was designed to identify active combinations of DNA G-quadruplex stabilizer agents and targeted small molecules. […] Compounds. […] If the clinical Cmax for an agent had not been determined, the highest concentration tested was 10 microM. […]
Answers are plain numbers, as −log10 of the molar value.

O=c1[nH]cc(F)c(=O)[nH]1 + Cc1cnc(CNC(=O)c2c(=O)c3ccc(N4CCCN(C)CC4)nc3n3c2sc2ccccc23)cn1 : 5.68
Cn1ncnc1[C@H]1c2n[nH]c(=O)c3cc(F)cc(c23)N[C@@H]1c1ccc(F)cc1 + Cc1cnc(CNC(=O)c2c(=O)c3ccc(N4CCCN(C)CC4)nc3n3c2sc2ccccc23)cn1 : 6.61
COc1ccc([C@@H](O)c2cc(-c3ncnc4cc(N5CCOCC5)ccc34)c(F)cc2Cl)nn1 + Cc1[nH]c2ccc(F)cc2c1-c1nc2c3cccnc3c3ncccc3c2[nH]1 : 5.07
CC1COCCN1c1cc(C2(S(C)(=N)=O)CC2)nc(-c2ccnc3[nH]ccc23)n1 (stereo unspecified) + Cc1cnc(CNC(=O)c2c(=O)c3ccc(N4CCCN(C)CC4)nc3n3c2sc2ccccc23)cn1 : 5.89

In the following, a different compound is considered.
Give 317291-083-R-J1-PDC complex spheroids, viability pIC50 for the following compound: COc1cccc2c1C(=O)c1c(O)c3c(c(O)c1C2=O)CC(O)(C(=O)CO)CC3OC1CC(N)C(O)C(C)O1 (stereo unspecified) + CN(C)c1ccc(Nc2c3ccc(NC(=O)CCN4CCCC4)cc3nc3cc(NC(=O)CCN4CCCC4)ccc23)cc1
7.14

Data provenance: PubChem BioAssay AID2060497
